- Test system: NCI-H226 lung
- protocolText: NCI tumour cell line growth inhibition, 48 h
TGI values by entry

Example results:
>>> print(df.to_string())
                                   molecule  reportedvalue
0  COc1cc2c(oc(=O)c3cc4ccoc4c(OC)c32)c2cccc(O)c12       > 100 µM
1    N#Cc1c(NC(=O)c2cccc3ccccc23)sc2c1CCCC2        > 25 µM
2      O=C(Nc1nncs1)NS(=O)(=O)n1cnc2ccccc21       > 100 µM
3  CCOc1ccc(N=Nc2ccc3oc(=O)c(/C(C)=N\NC(=O)CC(=O)Nc4ccc(Cl)cc4)cc3c2)cc1       > 100 µM

Query :: TGI for O=c1[nH]c(=O)n(C2CC(O)C(CO)O2)cc1C#Cc1cc(C(F)(F)F)cc(C(F)(F)F)c1 (stereo not given) ?
Result :: > 100 µM
